# ASSAYED_SYSTEM: Epithelial discoidin domain-containing receptor 1 (Homo sapiens)
# Sequence (Q08345 whole entry, the tested form may be a part): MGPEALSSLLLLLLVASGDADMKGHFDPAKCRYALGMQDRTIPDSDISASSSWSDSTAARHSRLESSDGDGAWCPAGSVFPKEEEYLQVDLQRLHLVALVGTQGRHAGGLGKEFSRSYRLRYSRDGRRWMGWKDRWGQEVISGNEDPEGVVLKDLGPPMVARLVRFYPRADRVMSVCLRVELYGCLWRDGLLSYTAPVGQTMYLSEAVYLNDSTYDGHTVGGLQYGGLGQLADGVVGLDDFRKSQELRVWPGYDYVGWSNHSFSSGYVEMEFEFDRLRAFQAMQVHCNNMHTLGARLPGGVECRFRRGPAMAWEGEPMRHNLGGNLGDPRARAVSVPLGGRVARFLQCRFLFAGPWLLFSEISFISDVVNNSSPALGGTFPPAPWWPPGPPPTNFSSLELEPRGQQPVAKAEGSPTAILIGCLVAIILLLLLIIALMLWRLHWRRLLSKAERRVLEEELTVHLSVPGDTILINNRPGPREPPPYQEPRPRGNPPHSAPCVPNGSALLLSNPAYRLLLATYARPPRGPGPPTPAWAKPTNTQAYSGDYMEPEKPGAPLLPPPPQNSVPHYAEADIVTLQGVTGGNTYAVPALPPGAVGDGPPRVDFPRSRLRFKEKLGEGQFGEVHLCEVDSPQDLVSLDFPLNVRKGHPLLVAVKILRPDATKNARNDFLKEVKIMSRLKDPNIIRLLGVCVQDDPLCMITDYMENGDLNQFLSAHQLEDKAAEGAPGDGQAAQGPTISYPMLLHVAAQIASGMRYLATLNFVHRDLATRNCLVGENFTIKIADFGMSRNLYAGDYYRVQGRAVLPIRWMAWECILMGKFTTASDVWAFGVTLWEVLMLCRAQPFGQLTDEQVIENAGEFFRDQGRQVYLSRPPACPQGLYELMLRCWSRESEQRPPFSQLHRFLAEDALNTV
pIC50: −log10 of the molar value.
VALUE_KIND: pIC50

STRUCTURE_SMILES	VALUE_KIND	DATA_VALUE
CN1CCN(Cc2cc(NC(=O)c3ccc4c(c3)CN(c3ccccc3)CC4)cc(C(F)(F)F)c2)CC1	pIC50	< 5.52

----------
# EXPERIMENT_SUMMARY: Cmax in ICR mouse at 4 mg/kg, po measured after 15 mins to 24 hrs by HPLC/MS analysis
# Format: ADME, organism-based
# Design: dose 4 mg/kg, route oral
# CONDITION_CONTEXT: in vivo
VALUE_KIND: Cmax (ng/mL)

STRUCTURE_SMILES	UNIT_STRING	DATA_VALUE
Cc1cn(-c2cc(NC(=O)c3ccc4c(c3)CN(c3cncnc3)C[C@@H]4C)cc(C(F)(F)F)c2)cn1	ng/mL	2190

----------
# EXPERIMENT_SUMMARY: Tmax in ICR mouse at 4 mg/kg, po by HPLC/MS analysis
# Assay type: ADME, organism-based
# CONDITION_CONTEXT: in vivo
VALUE_KIND: Tmax

STRUCTURE_SMILES	DATA_VALUE
Cc1cn(-c2cc(NC(=O)c3ccc4c(c3)CN(c3cncnc3)C[C@@H]4C)cc(C(F)(F)F)c2)cn1	30 min
